# experimental-details: yeast display, Sf9 membrane polyspecificity reagent, FACS + sequencing; frameworks hold sequencing errors
quantity-kind: polyreactivity (PSR sort gate)

Some sequences with known polyreactivity (PSR sort gate) results, for comparison:
sequence	quantity-kind	reported-result
QVQLVESGGGLVHAGGSLRLSCADSGRIFYANALGWSRQSPGRERELVAAISSGGSTYYADSVKGRFTSSRDNAKNTVYLQMNSLKPEDTAVYYCAVYTLKKVRPEYDYWGQGTQVTVSS	polyreactivity (PSR sort gate)	low polyreactivity
QVQLVESGGGLVQAGGSLRLSCAASGFIFANNAMGWYRQAPGKERELVAAITSRGASTYYADSVKGRFTISRDNAKNTVYLQMNSLKPEDTAVYYCAKATYHYRRYYWGQGTQVTVSS	polyreactivity (PSR sort gate)	high polyreactivity
QVQLVESGGGLVQAGGSLRLSFAASGLNFRVYAMGWYTQAPGTERELVAAISRGGSTYYADSVKGRFTISRDNAKNTVYLQMNSLKPEDTAVYYCAAVFVHRGYYYWGQGTQVTVSS	polyreactivity (PSR sort gate)	high polyreactivity
QVQLVESGGGLVQAGGSLRLSCAASGFTFLNYDMGWYRQAPGKERELVAAISRSDGITYYADSVKGRFTISRDNAKNSVYLHMNSLKPEDTAVYYCAAERDTPVGVPGYEYYYWGQGTQVTVSS	polyreactivity (PSR sort gate)	high polyreactivity
QVQLVESGGGLVKAGGSLRLTCAASGRTFGDNAMVWYRQATGKEMELVAAIRWGGGSTYYADSVKGRFTISRDNAKNTVFLQMNRLKPEDTAVYYCAKDDWDIALVHGEYDYWGQGTQVTVSS	polyreactivity (PSR sort gate)	low polyreactivity
QVQHVESGICLVQAGGSLRLSCAASGGTVTPYAMGWYRQAPGKERELVAAISRYGARTYYADSVKGRFTISRDNANNNVFLEMNSLKPEVSAVYYCAARWYARTYVRGGMVYWRQGTQVTVSS	polyreactivity (PSR sort gate)	high polyreactivity

Give one value of polyreactivity (PSR sort gate) per listed sequence.
1. QVQLVESGGGLVQAGGSLRLSCAASGSIFTPYTMGWYRQAPGKERELVAAITGSAGSTYYADSVKGRFTISRDNAKNTVYLQMNSLKPEDTAVYYCAAAVWGVYQWYYYWGQGTQVTVSS
2. QVQLVESGGGLVQSGGSLRLSCAASGSTIFRYAMGWSRQAPGKERELVAAISWSGASTYYADSVKGRFTISRDNAKNPVYLHMNSQKPEDTAVYYCAARSRWYDAAGYPKYYYWGHGTQVTVSS
3. QVQLVESAGGLVQAGGSLRLSCAASGLIFEYNAMGWYRQAPGKERELVAAITTNGGSTYYADSVKGRFTISRDNAKNTVYLQINSLKPEDTAVYYCAALGLHQVIEYDYWGQGTQVTVSS
4. QVQLVESGGGLVQAGGSLRLSCAASGFIFWFYAMGWYRQAPGKERELVASISASGGSTNYADSVKGRFTISRDYAKKTVYLQMNSLKPEDTAVYYCAARKRYLRGYWGQGTQVTVSS
5. QVQIVESGGCLVQAGGSLRLSCAASGRTFGRNAMGWYRQAPGKERELVAGISIGGGTTYYADSVKGRFTISRDNAKNTVYLQMNSLKPEDTAVYYCAARSWSYLHRYGYWGQGTQVTVSS

high polyreactivity
high polyreactivity
low polyreactivity
high polyreactivity
high polyreactivity
